Reference source: paper PMC2809336

- TARGET SYSTEM: NMDA NR1-1b S1S2 domain (Rattus norvegicus, UniProt P35439)
- Construct: (His)8-TSG-LVPRG(thrombin cut site)-S1(394-544)-GT-S2(663-800); (His)8-TSG-LVPRG (His8 tag with thrombin cut site) (N); made in house; host or cells: E. coli Origami B(DE3)
- Sequence (P35439 394-544): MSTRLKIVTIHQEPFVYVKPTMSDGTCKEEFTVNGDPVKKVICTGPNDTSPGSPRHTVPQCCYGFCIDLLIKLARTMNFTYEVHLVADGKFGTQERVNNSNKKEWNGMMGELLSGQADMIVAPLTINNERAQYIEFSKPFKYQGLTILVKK
- Sequence (P35439 663-800): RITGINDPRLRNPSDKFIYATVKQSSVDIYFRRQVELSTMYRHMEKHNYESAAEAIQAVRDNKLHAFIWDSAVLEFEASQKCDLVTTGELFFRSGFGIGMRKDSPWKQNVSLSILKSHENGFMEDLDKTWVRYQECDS
- PROCEDURE TEXT: Extrinsic ANS fluorescence
- Type: binding
- MEASUREMENT CONTEXT: ANS 1 : 1 with 5.29 μM NR1-1b S1S2, excitation 380 nm; drug concentrations as in Figure 4
QUANTITY KIND: ANS emission spectrum of the NR1-1b S1S2 complex versus ANS bound to apo S1S2 (binding)

1. CC(CN(C)C)CN1c2ccccc2CCc2ccccc21 (stereo not drawn); significantly different
2. COCCCC/C(=N\OCCN)c1ccc(C(F)(F)F)cc1; significantly different
3. CNCCC(Oc1ccc(C(F)(F)F)cc1)c1ccccc1 (stereo not drawn); confirmed the binding
4. COc1ccc(C(CN(C)C)C2(O)CCCCC2)cc1 (stereo not drawn); confirmed the binding
5. CNCCCC12CCC(c3ccccc31)c1ccccc12; significantly different

Now take the following compound into account.
// ANS emission spectrum of the NR1-1b S1S2 complex versus ANS bound to apo S1S2 (binding) (NMDA NR1-1b S1S2 domain (Rattus norvegicus, UniProt P35439)) for Fc1ccc([C@@H]2CCNC[C@H]2COc2ccc3c(c2)OCO3)cc1 = significantly different

###

- TARGET SYSTEM: NMDA NR1-1b S1S2 domain (Rattus norvegicus, UniProt P35439)
- Construct: (His)8-TSG-LVPRG(thrombin cut site)-S1(394-544)-GT-S2(663-800); (His)8-TSG-LVPRG (His8 tag with thrombin cut site) (N); made in house; host or cells: E. coli Origami B(DE3)
- PROCEDURE TEXT: Intrinsic tryptophan fluorescence quenching and λ max of emission
- Format: binding
- MEASUREMENT CONTEXT: desipramine, trimipramine, imipramine 137 μM; maprotiline 3.18 mM; nortriptyline 2.08 mM; paroxetine 3.75 mM; sertraline 1.88 mM; fluvoxamine 2.81 mM
- Description: Intrinsic fluorescence studies were performed in a Cary Eclipse fluorometer at 25°C. All emission scans were acquired from 300 to 400 nm upon excitation at 290 nm, with 10 nm excitation and emission slit widths in a 10 mm-path-length cell. […] All antidepressants were solubilized in 100% methanol to the highest attainable concentrations. […] The data is reported with error determined at the 95% confidence level. […]
QUANTITY KIND: Binding to NR1-1b S1S2 by intrinsic tryptophan fluorescence

Sample records with Binding to NR1-1b S1S2 by intrinsic tryptophan fluorescence:
1) COCCCC/C(=N\OCCN)c1ccc(C(F)(F)F)cc1; binding
2) CNCCCN1c2ccccc2CCc2ccccc21; binding
3) CNCCCC12CCC(c3ccccc31)c1ccccc12; binding
4) Fc1ccc([C@@H]2CCNC[C@H]2COc2ccc3c(c2)OCO3)cc1; binding

Alright, here's another compound for you.
Just so you know, measured Binding to NR1-1b S1S2 by intrinsic tryptophan fluorescence for CC(CN(C)C)CN1c2ccccc2CCc2ccccc21 (stereo not shown) came out at binding

###

- TARGET SYSTEM: NMDA NR1-1b S1S2 domain (Rattus norvegicus, UniProt P35439)
- Construct: (His)8-TSG-LVPRG(thrombin cut site)-S1(394-544)-GT-S2(663-800); (His)8-TSG-LVPRG (His8 tag with thrombin cut site) (N); made in house; host or cells: E. coli Origami B(DE3)
- PROCEDURE TEXT: Intrinsic tryptophan fluorescence quenching and λ max of emission
- Assay type: binding
- MEASUREMENT CONTEXT: excitation 290 nm, 25°C; apo 326.24 nm; drug at final quenching concentration
Reported λ max of the NR1-1b drug bound complex values for the following molecules.
Reply numerically in nm, unit not repeated.

Examples with their reported λ max of the NR1-1b drug bound complex follow.
1. Fc1ccc([C@@H]2CCNC[C@H]2COc2ccc3c(c2)OCO3)cc1; 328.3
2. COCCCC/C(=N\OCCN)c1ccc(C(F)(F)F)cc1; 328.57
3. CNCCCC12CCC(c3ccccc31)c1ccccc12; 322.04
4. CC(CN(C)C)CN1c2ccccc2CCc2ccccc21 (centres unmarked); 327.27

As a next step, examine the molecule that follows.
Measured λ max of the NR1-1b drug bound complex, CNCCCN1c2ccccc2CCc2ccccc21 : 326.77

###

- TARGET SYSTEM: NMDA NR1-1b S1S2 domain (Rattus norvegicus)
- Construct: (His)8-TSG-LVPRG(thrombin cut site)-S1(394-544)-GT-S2(663-800); (His)8-TSG-LVPRG (His8 tag with thrombin cut site) (N); made in house; host or cells: E. coli Origami B(DE3)
- PROCEDURE TEXT: Stern-Volmer analysis, acrylamide quenching of tryptophan fluorescence
- Format: binding
- MEASUREMENT CONTEXT: acrylamide 16.3 to 113.9 mM, 5.29 μM NR1-1b S1S2 premixed with antidepressant; apo 1.61
QUANTITY KIND: K sv (M⁻¹)
# unit: M⁻¹ | format: bare number

Before answering, review these 3 worked examples.
1) COCCCC/C(=N\OCCN)c1ccc(C(F)(F)F)cc1; 3.77
2) Fc1ccc([C@@H]2CCNC[C@H]2COc2ccc3c(c2)OCO3)cc1; 3.06
3) CC(CN(C)C)CN1c2ccccc2CCc2ccccc21 (centres unmarked); 3.02

The reported value for CNCCCN1c2ccccc2CCc2ccccc21 in terms of K sv is 2.67

Lab note: measured K sv of CNCCCC12CCC(c3ccccc31)c1ccccc12 was 5.92

###

- TARGET SYSTEM: NMDA NR1-1b S1S2 domain (Rattus norvegicus, UniProt P35439)
- Construct: (His)8-TSG-LVPRG(thrombin cut site)-S1(394-544)-GT-S2(663-800); (His)8-TSG-LVPRG (His8 tag with thrombin cut site) (N)
- PROCEDURE TEXT: Kd determination by intrinsic tryptophan fluorescence (double reciprocal, Benesi-Hildebrand plot)
- MEASUREMENT CONTEXT: 5.29 μM NR1-1b S1S2, buffer 3 pH 6.5, 25°C, error at 95% confidence level
QUANTITY KIND: Kd (mM)
Give just the number in mM; leave the unit off.

What the record says about CC(CN(C)C)CN1c2ccccc2CCc2ccccc21 (stereo not shown) : Kd is 1.09
